- Target Desc: gastrin (CCK2) receptors (Rattus norvegicus, UniProt P30553)
- Construct: The stomach was excised and flushed with ca. 1 ml of unbuffered physiological saline solution; from tissue; host or cells: isolated whole stomach of immature rats (ca. 21 days old)
- Sequence (P30553 1-452): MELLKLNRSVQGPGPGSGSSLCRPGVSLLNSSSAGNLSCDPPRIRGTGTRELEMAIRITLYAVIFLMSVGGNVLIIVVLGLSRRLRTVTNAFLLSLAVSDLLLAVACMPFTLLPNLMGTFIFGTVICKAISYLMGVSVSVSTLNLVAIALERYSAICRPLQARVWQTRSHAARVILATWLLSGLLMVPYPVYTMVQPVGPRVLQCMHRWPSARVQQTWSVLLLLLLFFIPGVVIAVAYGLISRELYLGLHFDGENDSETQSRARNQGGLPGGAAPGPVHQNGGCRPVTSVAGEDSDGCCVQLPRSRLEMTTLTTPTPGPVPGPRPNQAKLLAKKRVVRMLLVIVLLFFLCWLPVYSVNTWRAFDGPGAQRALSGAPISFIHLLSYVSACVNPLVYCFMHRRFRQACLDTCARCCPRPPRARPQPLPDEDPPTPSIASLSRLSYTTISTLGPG
- Measurement Notes: gastrin (CCK2) antagonist activity in an immature rat stomach assay
- Measurement Conditions: pentagastrin dose-response curves, acid secretion, read-out: pKB rat stomach (converted)
Measured Endpoint: Kb (nM)

CC(C)(C)C(=O)CN1C(=O)N(CC(=O)Nc2ccc3ncn(CC(=O)O)c3c2)N=C(C2CCCCC2)c2ccccc21 [Example 94] = 155

I: CNCCN(C)c1cccc(NC(=O)CN2N=C(C3CCCCC3)c3ccccc3N(CC(=O)C(C)(C)C)C2=O)c1 [Example 143]
II: CC(C)(C)C(=O)CN1C(=O)N(CC(=O)Nc2cccc(C(=O)O)c2)N=C(C2CCCC2)c2ccccc21 [Example 9]
III: Cc1cccc2c1C(C1CCCCC1)=NN(CC(=O)Nc1cccc(C(=O)O)c1)C(=O)N2CC(=O)C(C)(C)C [Example 114]
Ordering criterion: Kb; begin with the maximum. Write the labels in rank order as requested.
I, II, III

====

- Target Desc: human gastrin (CCK2) receptors (Homo sapiens, UniProt P32239)
- Construct: amplified by PCR (polymerase chain reaction) from the start codon to the stop codon; expressed in transfected cells
- Sequence (P32239 1-447): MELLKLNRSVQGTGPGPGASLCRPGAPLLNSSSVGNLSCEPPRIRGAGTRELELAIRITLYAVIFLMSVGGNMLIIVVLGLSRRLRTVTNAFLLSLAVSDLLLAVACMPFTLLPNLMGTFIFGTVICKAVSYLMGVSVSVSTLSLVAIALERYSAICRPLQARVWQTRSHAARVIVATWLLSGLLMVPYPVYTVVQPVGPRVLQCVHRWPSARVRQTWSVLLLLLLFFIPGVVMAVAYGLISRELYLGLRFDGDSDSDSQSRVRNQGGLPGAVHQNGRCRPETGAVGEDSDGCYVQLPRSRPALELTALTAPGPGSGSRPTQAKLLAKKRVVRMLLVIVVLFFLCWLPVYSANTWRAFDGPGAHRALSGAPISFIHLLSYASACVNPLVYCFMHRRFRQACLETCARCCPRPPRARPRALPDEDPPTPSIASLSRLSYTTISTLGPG
- Measurement Notes: [125I]-BH-CCK-8S binding at human gastrin (CCK2) receptors cloned into an NIH3T3 cell line
- Measurement Conditions: read-out: pKi ± s.e.mean (converted)
Measured Endpoint: Ki (nM)

Reference set (3 entries):
CN1C(=O)N(CC(=O)Nc2ccccc2)[N+]([O-])=C(C2CCCCC2)c2ccccc21 = 3240
O=C(CN1N=C(C2CCCCC2)c2ccccc2N(CC(=O)C2CCCC2)C1=O)Nc1cccc(C(=O)O)c1 = 0.355
O=C(O)CCc1cccc(NC(=O)CN2N=C(C3CCCCC3)c3ccccc3N(CC(=O)C3CCCC3)C2=O)c1 = 0.204

A: CC(C)(C)C(=O)CN1C(=O)N(CC(=O)Nc2cccc(-c3nc(=O)o[nH]3)c2)N=C(C2CCCCC2)c2ccccc21
B: O=C(CN1N=C(C2CCCCC2)c2ccccc2N(CC(=O)C2CCCC2)C1=O)Nc1cccc(-c2nc(=O)o[nH]2)c1
Of the two listed items, which has the higher Ki? First: A Second: B Could you answer with the label of the item you picked?
A

====

- Target Desc: gastrin (CCK2) receptors (Rattus norvegicus)
- Construct: The stomach was excised and flushed with ca. 1 ml of unbuffered physiological saline solution; from tissue; host or cells: isolated whole stomach of immature rats (ca. 21 days old)
- Measurement Notes: gastrin (CCK2) antagonist activity in an immature rat stomach assay
- Measurement Conditions: pentagastrin dose-response curves, acid secretion, read-out: pKB rat stomach (converted)
Measured Endpoint: Kb (nM)

1: CNc1cccc(NC(=O)CN2N=C(C3CCCCC3)c3ccccc3N(CC(=O)C3CCCC3)C2=O)c1 [Example 57]
2: CC(C)(C)C(=O)CN1C(=O)N(CC(=O)Nc2cccc(/C=C/C(=O)O)c2)N=C(C2CCCCC2)c2ccccc21 [Example 60]
3: CC(C)(C)C(=O)CN1C(=O)N(CC(=O)Nc2cccc(CC(=O)O)c2)N=C(C2CCCCC2)c2ccccc21 [Example 29]
4: CNc1cccc(NC(=O)CN2N=C(c3ccccc3)c3ccccc3N(CC(=O)C(C)(C)C)C2=O)c1 [Example 4]
5: CNc1cc(NC(=O)CN2N=C(C3CCCCC3)c3ccccc3N(CC(O)C(C)(C)C)C2=O)cc(C(=O)OC)c1 (stereo not shown) [Example 78]
Order these compounds (above) by their Kb, from the smallest value upward. Answer format: the labels, ordered as requested.
1, 2, 3, 4, 5
(1: 1.17 nM, 2: 3.47 nM, 3: 61.7 nM, 4: 132 nM, 5: 324 nM)

====

- Target Desc: gastrin (CCK2) receptors (Rattus norvegicus)
- Construct: The stomach was excised and flushed with ca. 1 ml of unbuffered physiological saline solution; from tissue; host or cells: isolated whole stomach of immature rats (ca. 21 days old)
- Measurement Notes: gastrin (CCK2) antagonist activity in an immature rat stomach assay
- Measurement Conditions: pentagastrin dose-response curves, acid secretion, read-out: pKB rat stomach (converted)
Measured Endpoint: Kb (nM)

Known results for molecules:
Cc1nc(-c2cccc(NC(=O)CN3N=C(C4CCCCC4)c4ccccc4N(CC(=O)C(C)(C)C)C3=O)c2)cs1 [Example 107] = 3.31
CN(C)c1cccc(NC(=O)CN2N=C(C3CCCCC3)c3ccccc3N(CC(=O)C(C)(C)C)C2=O)c1 [Example 33] = 91.2
O=C(CN1N=C(C2CCCCC2)c2ccccc2N(CC(=O)C2CCCC2)C1=O)Nc1cccc(-c2csc(C(=O)O)n2)c1 [Example 137] = 2.88
O=C(O)Cc1cccc(NC(=O)CN2N=C(C3CCCCC3)c3ccccc3N(CC(=O)C3CC3)C2=O)c1 [Example 119] = 24.5
CN(CC(=O)O)c1cccc(NC(=O)CN2N=C(C3CCCCC3)c3ccccc3N(CC(=O)C(C)(C)C)C2=O)c1 [Example 96] = 7.24
CNc1cc(NC)cc(NC(=O)CN2N=C(C3CCCCC3)c3ccccc3N(CC(=O)C(C)(C)C)C2=O)c1 [Example 104] = 44.7
CC(C)CCN1C(=O)N(CC(=O)Nc2cccc(C(=O)O)c2)N=C(C2CCCCC2)c2ccccc21 [Example 16] = 42.7
CNc1cccc(NC(=O)CN2N=C(c3ccccn3)c3ccccc3N(CC(=O)C(C)(C)C)C2=O)c1 [Example 5] = 240

1: CC(C)(C)C(=O)CN1C(=O)N(CC(=O)Nc2cccc(-c3ccc(C(=O)O)s3)c2)N=C(C2CCCCC2)c2ccccc21 [Example 157]
2: O=C(CN1N=C(C2CCCCC2)c2ccccc2N(CC(=O)C2CCCC2)C1=O)Nc1cccc(C(=O)O)c1 [Example 22]
3: Cc1cccc(NNC(=O)CN2N=C(C3CCCCC3)c3ccccc3N(CC(=O)C(C)(C)C)C2=O)c1 [Example 46]
I would appreciate it if you could sort these 3 molecules by Kb, starting from the smallest number. API: response body holds the labels in the requested order.
2, 1, 3

====

- Target Desc: gastrin (CCK2) receptors (Rattus norvegicus, UniProt P30553)
- Construct: The stomach was excised and flushed with ca. 1 ml of unbuffered physiological saline solution; from tissue; host or cells: isolated whole stomach of immature rats (ca. 21 days old)
- Measurement Notes: gastrin (CCK2) antagonist activity in an immature rat stomach assay
- Measurement Conditions: pentagastrin dose-response curves, acid secretion, read-out: pKB rat stomach (converted)
Measured Endpoint: Kb (nM)

CC(C)(C)C(=O)CN1C(=O)N(CC(=O)Nc2cccc(-c3nn[nH]n3)c2)N=C(C2CCCCC2)c2ccccc21 = 11.2
CNc1cccc(NC(=O)CN2N=C(C3CCCC3)c3ccccc3N(CC(=O)C(C)(C)C)C2=O)c1 = 44.7

1: CC(C)(C)C(=O)CN1C(=O)N(CC(=O)Nc2cccc(N3CCCC3C(=O)O)c2)N=C(C2CCCCC2)c2ccccc21 (stereo in doubt)
2: CC(C)(C)C(=O)CN1C(=O)N(CC(=O)Nc2cccc(NS(C)(=O)=O)c2)N=C(C2CCCCC2)c2ccccc21
Pick one: 1 or 2 . Which one has the lower reported Kb? Identify your pick by its label.
1

The reported measurements were obtained from patent US20050026911A1.
